TARGET DESC: recombinant human baculovirus-expressed GST-tagged FASN (Homo sapiens, UniProt P49327)
Construct: GST
Sequence (P49327 whole entry): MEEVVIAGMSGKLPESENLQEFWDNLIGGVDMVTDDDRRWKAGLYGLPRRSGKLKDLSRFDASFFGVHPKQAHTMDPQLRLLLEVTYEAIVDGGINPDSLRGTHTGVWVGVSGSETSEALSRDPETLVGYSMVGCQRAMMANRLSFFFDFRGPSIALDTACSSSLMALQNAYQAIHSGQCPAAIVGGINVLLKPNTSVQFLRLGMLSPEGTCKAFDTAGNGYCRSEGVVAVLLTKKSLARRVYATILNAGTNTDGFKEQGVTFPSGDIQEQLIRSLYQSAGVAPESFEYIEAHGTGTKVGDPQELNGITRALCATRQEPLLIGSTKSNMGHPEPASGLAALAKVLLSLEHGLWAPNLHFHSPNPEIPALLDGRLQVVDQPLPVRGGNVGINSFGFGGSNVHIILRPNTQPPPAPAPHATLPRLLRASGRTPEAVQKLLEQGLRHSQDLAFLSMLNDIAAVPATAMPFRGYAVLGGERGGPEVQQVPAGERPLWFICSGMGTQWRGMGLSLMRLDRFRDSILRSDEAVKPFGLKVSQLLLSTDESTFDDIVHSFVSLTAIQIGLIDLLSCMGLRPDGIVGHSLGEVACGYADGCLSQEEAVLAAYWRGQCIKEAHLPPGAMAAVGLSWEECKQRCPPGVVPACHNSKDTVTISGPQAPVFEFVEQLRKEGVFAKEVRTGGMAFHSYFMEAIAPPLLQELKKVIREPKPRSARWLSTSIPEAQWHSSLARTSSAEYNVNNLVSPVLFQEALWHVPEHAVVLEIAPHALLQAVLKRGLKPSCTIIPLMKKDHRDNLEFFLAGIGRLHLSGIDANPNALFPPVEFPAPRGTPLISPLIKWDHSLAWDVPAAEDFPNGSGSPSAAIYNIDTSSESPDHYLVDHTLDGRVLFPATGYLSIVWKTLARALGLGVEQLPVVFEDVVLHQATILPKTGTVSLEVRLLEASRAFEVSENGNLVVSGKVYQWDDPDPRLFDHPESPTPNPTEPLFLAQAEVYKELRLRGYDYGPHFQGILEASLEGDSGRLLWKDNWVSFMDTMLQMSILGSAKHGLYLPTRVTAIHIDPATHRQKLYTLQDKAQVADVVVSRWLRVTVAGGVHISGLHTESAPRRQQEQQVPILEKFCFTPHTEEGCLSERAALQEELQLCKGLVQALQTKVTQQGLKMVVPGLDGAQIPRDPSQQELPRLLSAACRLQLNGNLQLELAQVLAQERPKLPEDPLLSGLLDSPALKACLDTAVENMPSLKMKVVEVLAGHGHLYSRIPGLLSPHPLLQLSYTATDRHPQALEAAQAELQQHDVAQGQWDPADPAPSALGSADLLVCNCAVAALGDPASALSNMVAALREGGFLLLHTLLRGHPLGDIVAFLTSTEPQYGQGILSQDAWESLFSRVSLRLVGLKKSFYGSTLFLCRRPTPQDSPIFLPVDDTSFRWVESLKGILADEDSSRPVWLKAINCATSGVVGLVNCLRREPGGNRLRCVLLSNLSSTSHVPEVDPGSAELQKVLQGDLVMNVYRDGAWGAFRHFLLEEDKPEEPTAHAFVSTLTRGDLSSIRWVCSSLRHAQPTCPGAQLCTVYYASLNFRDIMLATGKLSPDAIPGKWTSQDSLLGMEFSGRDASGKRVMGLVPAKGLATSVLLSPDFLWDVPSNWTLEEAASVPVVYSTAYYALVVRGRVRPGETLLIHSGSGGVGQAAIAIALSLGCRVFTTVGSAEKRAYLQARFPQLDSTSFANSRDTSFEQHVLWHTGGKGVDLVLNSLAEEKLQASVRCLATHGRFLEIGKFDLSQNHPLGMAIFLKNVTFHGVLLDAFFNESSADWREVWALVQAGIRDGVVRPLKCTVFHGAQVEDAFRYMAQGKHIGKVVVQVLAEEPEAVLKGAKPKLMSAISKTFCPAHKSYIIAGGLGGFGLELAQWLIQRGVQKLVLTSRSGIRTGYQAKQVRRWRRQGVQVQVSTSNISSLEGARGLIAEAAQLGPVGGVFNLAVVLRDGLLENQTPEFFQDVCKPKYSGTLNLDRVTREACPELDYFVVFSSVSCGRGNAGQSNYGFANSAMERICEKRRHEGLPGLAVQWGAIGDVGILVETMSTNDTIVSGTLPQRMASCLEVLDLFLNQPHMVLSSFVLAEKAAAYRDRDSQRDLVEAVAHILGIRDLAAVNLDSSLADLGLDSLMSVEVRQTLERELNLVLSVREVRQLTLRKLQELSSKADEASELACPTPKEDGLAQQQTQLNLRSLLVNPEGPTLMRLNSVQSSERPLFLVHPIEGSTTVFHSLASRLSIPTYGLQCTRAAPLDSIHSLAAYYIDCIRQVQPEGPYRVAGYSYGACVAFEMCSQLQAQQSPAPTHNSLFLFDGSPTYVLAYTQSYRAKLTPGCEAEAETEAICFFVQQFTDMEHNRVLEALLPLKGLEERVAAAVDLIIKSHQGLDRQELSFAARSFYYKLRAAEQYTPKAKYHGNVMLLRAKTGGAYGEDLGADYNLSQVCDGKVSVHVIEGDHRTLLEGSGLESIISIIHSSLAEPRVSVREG
ASSAY SUMMARY: FASN enzyme activity assay, fluorescence-based detection of CoA with CPM
Assay type: biochemical
REPORTED CONDITIONS: 5 nM FASN, 150 μM NADPH, 10 μM acetyl-CoA, 25 μM malonyl-CoA, 90 minutes incubation; read-out: IC50 data for Additional Compounds of Formulae I-V(a): Activity
pIC50: −log10 of the molar value. Where a name gives a salt, the structure may show the parent alone.
READOUT: pIC50

# annotated cases, reported pIC50 shown
COMPOUND	READOUT	EXPERIMENTAL VALUE
Cc1c(-c2ccc(OC3CCN(C(=O)NOCC(C)C)CC3)cc2)ccc2cccnc12 [Example 544]	pIC50	7.00 to 9.00
Cc1c(-c2ccc(OC3CCN(C(=O)NCC(C)C)CC3)cc2)ccn2ccnc12 [Example 632]	pIC50	7.00 to 9.00
CCCNC(=O)N1CCC(Oc2ccc(-c3ccc4c(C)nccc4c3)cc2)CC1 [Example 579]	pIC50	6.00 to 7.00
Cc1c(-c2ccc(OC3CCN(C(=O)NCCN(C)C)CC3)cc2)ccc2cccnc12 [Example 545, HCl]	pIC50	7.00 to 9.00

pIC50 reported for this compound Cc1c(-c2ccc(OC3CCN(C(=O)N4CCC(N5CCOCC5)CC4)CC3)cc2)ccc2cccnc12 [Example 534, HCl] : 5.00 to 6.00

pIC50 in this record for COCCOC(=O)N1CCC(Oc2ccc(-c3ccc4cccnc4c3C)cc2)CC1 [Example 555, HCl] : 5.00 to 6.00

# pIC50 of CCN1CCN(C(=O)N2CCC(Oc3ccc(-c4ccc5cccnc5c4C)cc3)CC2)CC1 [Example 535] = 5.00 to 6.00

# compound Cc1c(-c2ccc(OC3CCN(C(=O)NOC(C)C)CC3)cc2)ccc2cccnc12 [Example 543] ; its pIC50 = 5.00 to 6.00

Please fill in: pIC50 reported for CCCNC(=O)N1CCC(Oc2ccc(-c3cnc4ccccc4c3C)cc2)CC1 [Example 591] = 7.00 to 9.00

Measured pIC50 of Cc1c(-c2ccc(OC3CCN(C(=O)NOC(C)C)CC3)cc2)ccc2ccnn12 [Example 537] : 7.00 to 9.00

Per the records, this compound ( Cc1c(-c2ccc(OC3CCN(C(=O)[C@H]4CCCN4C)CC3)cc2)ccc2cccnc12 [Example 616] ) has pIC50 equal to 5.00 to 6.00

Given item O=C(NCC1CC1)N1CCC(Oc2ccc(-c3ccc4nccn4c3Cl)cc2)CC1 [Example 568] , the value recorded as its pIC50 is 5.00 to 6.00

What the record says about Cc1c(-c2ccc(OC3CCN(C(=O)N4CCCCCC4)CC3)cc2)ccc2cccnc12 [Example 562] : pIC50 is 5.00 to 6.00

Input Cc1nccc2cc(-c3ccc(OC4CCN(C(=O)NCC5CC5)CC4)cc3)ccc12 [Example 582] . Output pIC50: 5.00 to 6.00

Value of measured pIC50 for the entry COCCNC(=O)N1CCC(Oc2ccc(-c3ccc4nccn4c3C)cc2)CC1 [Example 597] : 5.00 to 6.00

The value of pIC50 measured for the compound Cc1c(-c2ccc(OC3CCN(C(=O)OC4CCOCC4)CC3)cc2)ccc2cccnc12 [Example 556] turned out to be 5.00 to 6.00
